These entries and their values trace back to patent US7183252B2.

Study System: thrombin receptor (PAR-1) (Homo sapiens)
Construct: CHRF membranes (Jones, Biochim. Biophys. Acta 1992, 1136, 272) are thawed from −70° C; endogenous in cells
Sequence (P25116 22-425): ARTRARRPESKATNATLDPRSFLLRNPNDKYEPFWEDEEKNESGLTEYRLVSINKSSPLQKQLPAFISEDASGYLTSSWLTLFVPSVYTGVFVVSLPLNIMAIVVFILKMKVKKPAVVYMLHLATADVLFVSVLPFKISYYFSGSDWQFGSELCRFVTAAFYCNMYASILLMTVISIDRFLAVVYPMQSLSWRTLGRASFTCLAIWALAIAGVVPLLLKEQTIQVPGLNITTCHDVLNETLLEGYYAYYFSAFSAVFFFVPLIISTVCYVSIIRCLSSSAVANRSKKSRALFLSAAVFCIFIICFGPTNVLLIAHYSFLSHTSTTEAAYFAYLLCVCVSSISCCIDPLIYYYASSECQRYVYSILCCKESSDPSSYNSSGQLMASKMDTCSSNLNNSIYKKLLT
Assay Details: In vitro thrombin receptor binding assay (CHRF membranes)
Measurement Conditions: tritiated 721-40 radioligand, read-out: Bndg IC50 (Thrombin receptor binding)
Experimental Endpoint: pIC50
Scale: negative log10 of molar concentration, which is what pIC50 denotes.

Query: Quick one: pIC50 for NCCC[C@H](NC(=O)[C@H](Cc1ccc(F)c(F)c1)NC(=O)Nc1ccc2c(CN3CCCC3)cn(Cc3c(Cl)cccc3Cl)c2c1)C(=O)NCc1ccccn1 ?
Result: 6.00

Query: Quick one: pIC50 for COc1ccc(C[C@H](NC(=O)Nc2ccc3c(c2)c(CN2CCCCC2)cn3Cc2ccc(F)cc2)C(=O)N[C@@H](CCCNC(=N)N)C(=O)NCc2ccccc2)cc1 ?
Result: 5.28

Query: Quick one: pIC50 for COc1ccc(C[C@H](NC(=O)Nc2ccc3c(CN4CCCC4)cn(Cc4ccc(F)c(F)c4)c3c2)C(=O)N[C@@H](CCCNC(=N)N)C(=O)NCc2ccccc2)cc1 ?
Result: 5.96

Query: Quick one: pIC50 for COc1ccc(C[C@H](NC(=O)Nc2ccc3c(CN4CCCC4)cn(Cc4c(Cl)cccc4Cl)c3c2)C(=O)N[C@@H](CCCNC(=N)N)C(=O)NCc2ccccc2)cc1 ?
Result: 5.85

Query: Quick one: pIC50 for CCCCCCCCNC(=O)[C@H](CCCNC(=N)N)NC(=O)[C@H](Cc1ccc(F)c(F)c1)NC(=O)Nc1ccc2c(CN3CCCCC3)cn(Cc3ccc(F)cc3)c2c1 ?
Result: 5.12

Query: Quick one: pIC50 for COc1ccc(C[C@H](NC(=O)Nc2ccc3c(CN4CCCC4)cn(Cc4ccccc4)c3c2)C(=O)N[C@@H](CCCNC(=N)N)C(=O)NCc2ccccc2)cc1 ?
Result: 5.40

Query: Quick one: pIC50 for C=CCN(C)Cc1cn(Cc2c(Cl)cccc2Cl)c2cc(NC(=O)N[C@@H](Cc3cccc(F)c3)C(=O)N[C@@H](CCCN)C(=O)NC3Cc4ccccc4C3)ccc12 ?
Result: 5.77

Query: Quick one: pIC50 for NCCC[C@H](NC(=O)[C@H](Cc1ccc(F)c(F)c1)NC(=O)Nc1ccc2c(CN3CCCC3)cn(Cc3c(Cl)cccc3Cl)c2c1)C(=O)NCc1ccncc1 ?
Result: 5.64

Query: Quick one: pIC50 for N=C(N)NCCC[C@H](NC(=O)[C@@H]1CCCN1C(=O)Nc1ccc2c(CN3CCCC3)cn(Cc3c(Cl)cccc3Cl)c2c1)C(=O)NCc1ccccc1 ?
Result: 5.10

Query: Quick one: pIC50 for COc1ccc(C[C@H](NC(=O)Nc2ccc3c(CN(C)CCCN(C)C)cn(Cc4ccc(F)cc4)c3c2)C(=O)N[C@@H](CCCNC(=N)N)C(=O)NCc2ccccc2)cc1 ?
Result: 5.14

Query: Quick one: pIC50 for CCN(CC)Cc1cn(CCCc2ccccc2)c2cc(NC(=O)N[C@@H](Cc3ccc(F)c(F)c3)C(=O)N[C@@H](CCCNC(=N)N)C(=O)NCc3ccccc3)ccc12 ?
Result: 6.64
